Experiment: Thermodynamic aqueous solubility in USP phosphate buffer (Example 25)
Assay type: physicochemical
Conditions: aqueous buffer, thermodynamic from solid; USP phosphate buffer pH 7.4, 24 h at 20° C., LC-MS/MS; read-out: Thermodynamic aq solubility
Rule: solubility thermodynamic at 24 h of 2000 µM or more gives yes; anything lower gives no.

Reference set (4 entries):
Molecule	Class assignment
CN(c1ccc(Cl)cc1)c1ccc(C(=O)c2ccc(C(=O)CCC3CCCCC3)c(C(=O)O)c2)nc1 [Example 18]	no
O=C(c1ccc(C(=O)C2(c3ccccc3)CC2)c(C(=O)O)c1)c1ccc(N(CC2CC2)c2ccc(Cl)cc2)cn1 [Example 8]	no
CN(c1ccc(Cl)cc1)c1ccc(C(=O)c2ccc(C(=O)c3ccccc3)c(C(=O)O)c2)nc1 [Example 1:1]	yes
COc1ccc(C2(C(=O)c3ccc(C(=O)c4ccc(N(C)c5ccc(Cl)cc5)cn4)cc3C(=O)O)CC2)cc1 [Example 10]	no

*Q* Exam item: decide whether the reported solubility thermodynamic at 24 h for COc1ccc(C(=O)c2ccc(C(=O)c3ccc(N(CC4CC4)c4ccc(Cl)cc4)cn3)cc2C(=O)O)cc1 [1:4] is at least 2000 µM.
*A* yes

*Q* Exam item: decide whether the reported solubility thermodynamic at 24 h for CC(=O)c1ccc(C(=O)c2ccc(N(CC3CC3)c3ccc(Cl)cc3)cn2)cc1C(=O)O [Example 22] is at least 2000 µM.
*A* no
